- TARGET DESC: T1, recombinant human DLL4 (Cat# 1506-D4/CF, R&D Systems) (human, UniProt Q9NR61 27-529)
- T1 construct: Bought protein; also called hDLL4; rHuman DLL4
- PROCEDURE TEXT: ELISA, DLL4 coated, Fab 100 nM
EXPERIMENTAL ENDPOINT: ELISA absorbance at 450 nm (A450)
Numeric answer only, unit A450 assumed.

[
  {
    "BINDER": "Fab VH5-51_IGHD5-18*01>3_IGHJ4*01 G100K/G104T G24T/S28R/G35V & V3-4_IGLJ1*01 V91L/S96P (Fab, V domains shown, Fab made in E. coli: VH on CH1 with His6 and Flag tags (Plasmid A), VL on lambda CL (Plasmid E); also called H: KT TRV & L: LP) VH: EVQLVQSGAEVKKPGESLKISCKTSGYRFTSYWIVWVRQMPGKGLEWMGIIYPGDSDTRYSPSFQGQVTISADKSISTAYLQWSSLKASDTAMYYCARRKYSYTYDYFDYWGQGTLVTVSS VL: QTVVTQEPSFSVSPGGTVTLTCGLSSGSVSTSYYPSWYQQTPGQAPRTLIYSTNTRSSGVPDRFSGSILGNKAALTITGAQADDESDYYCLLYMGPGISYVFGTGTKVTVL",
    "UNIT ANNOTATION": "A450",
    "OBS VALUE": 0.34
  }
]

Item under review: Fab VH1-46_IGHD6-6*01_IGHJ1*01 S102A/S103P/S104F/H111F & L6_IGKJ1*01 S28N/S30D/S31H A55S (Fab, V domains shown, Fab made in E. coli: VH on CH1 with His6 and Flag tags (Plasmid A), VL on kappa CL (Plasmid C); also called H: APFF & L: NDH A55S) VH: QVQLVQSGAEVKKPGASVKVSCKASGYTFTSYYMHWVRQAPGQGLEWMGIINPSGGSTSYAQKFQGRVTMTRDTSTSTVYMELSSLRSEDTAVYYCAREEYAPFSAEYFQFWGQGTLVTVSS VL: EIVLTQSPATLSLSPGERATLSCRASQNVDHYLAWYQQKPGQAPRLLIYDASNRSTGIPARFSGSGSGTDFTLTISSLEPEDFAVYYCQQRSNWPPWTFGQGTKVEIKR . Reported ELISA absorbance at 450 nm?
0.858

Item under review: Fab VH5-51_IGHD5-18*01>3_IGHJ4*01 G100K/G104T G24T/S28R/G35V & V3-4_IGLJ1*01 (Fab, V domains shown, Fab made in E. coli: VH on CH1 with His6 and Flag tags (Plasmid A), VL on lambda CL (Plasmid E); also called H: KT TRV & L: wt) VH: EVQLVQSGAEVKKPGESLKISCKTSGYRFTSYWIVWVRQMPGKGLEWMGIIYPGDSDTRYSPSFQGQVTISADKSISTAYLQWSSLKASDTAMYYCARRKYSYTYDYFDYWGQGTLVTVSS VL: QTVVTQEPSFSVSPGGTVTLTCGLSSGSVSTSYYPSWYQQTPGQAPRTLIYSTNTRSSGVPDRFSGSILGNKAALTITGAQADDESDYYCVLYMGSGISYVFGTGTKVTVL . Reported ELISA absorbance at 450 nm?
0.16

The reported numbers originate from patent US20110318339A1.
